Collected set of pIC50 measured with Neprilysin (Rattus norvegicus, UniProt P07861) across studies.
Sequence (P07861 whole entry): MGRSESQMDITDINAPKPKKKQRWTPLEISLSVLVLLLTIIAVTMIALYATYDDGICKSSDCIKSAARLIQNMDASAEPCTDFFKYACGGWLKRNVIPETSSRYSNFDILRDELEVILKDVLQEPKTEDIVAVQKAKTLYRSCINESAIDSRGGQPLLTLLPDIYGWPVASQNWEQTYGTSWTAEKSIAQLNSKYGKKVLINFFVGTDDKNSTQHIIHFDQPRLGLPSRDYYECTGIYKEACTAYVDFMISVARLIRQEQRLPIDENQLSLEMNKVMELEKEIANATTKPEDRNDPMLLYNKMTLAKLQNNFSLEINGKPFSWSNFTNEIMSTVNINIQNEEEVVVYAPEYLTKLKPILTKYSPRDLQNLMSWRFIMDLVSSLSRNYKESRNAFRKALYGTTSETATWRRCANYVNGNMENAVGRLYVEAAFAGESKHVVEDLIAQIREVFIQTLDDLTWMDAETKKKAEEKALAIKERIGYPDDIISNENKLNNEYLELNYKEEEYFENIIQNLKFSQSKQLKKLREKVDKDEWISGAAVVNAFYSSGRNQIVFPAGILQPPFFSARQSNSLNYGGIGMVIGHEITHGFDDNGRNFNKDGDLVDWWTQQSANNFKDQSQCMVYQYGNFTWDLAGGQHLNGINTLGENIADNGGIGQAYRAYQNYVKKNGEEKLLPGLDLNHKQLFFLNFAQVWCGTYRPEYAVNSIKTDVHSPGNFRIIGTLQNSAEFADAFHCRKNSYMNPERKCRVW
pIC50: −log10 of the molar value.
Give Yes when the value for pIC50 is at least 7. Give No when it is less.

In [3]: df
Out[3]:
                                    molecule  category_label
 0  COc1ccc(CCC(N[C@@H](Cc2ccc3c(c2)oc2ccccc23)C(=O)O)P(=O)(O)O)c(OC)c1OC (stereo in doubt; 40k')              No
 1  O=C(NC1CCC[C@H]2CCC[C@@H](C(=O)O)N2C1=O)[C@@H](S)Cc1ccccc1 (stereo partly drawn)             Yes
 2  CCC[C@H]1CCC[C@H](NC(=O)[C@@H](S)Cc2ccccc2)C(=O)N1[C@@H](C)C(=O)O             Yes
 3  CC(C)[C@H](S)C(=O)N[C@@H](Cc1ccc(-c2ccccc2)cc1)C(=O)N[C@H](C(=O)O)C(C)C             Yes
 4  O=P(O)(O)C(CCc1cccc2ccccc12)N[C@@H](Cc1ccc2c(c1)oc1ccccc12)c1nnn[nH]1 (stereo in doubt; 43b')              No
 5  O=C(O)CN1C(=O)[C@@H](NC(=O)[C@@H](S)Cc2ccccc2)CCCC12CC2              No
 6  O=C(O)CCNC(=O)C(Cc1ccccc1)NCP(=O)(O)O (stereo not drawn)              No
 7  O=P(O)(O)CNC(Cc1ccc2c(c1)Cc1ccccc1-2)c1nnn[nH]1 (stereo not drawn)              No
 8  O=C1NC(C(=O)N2CCC[C@H]2C(=O)O)CCCCCCC1CS (stereo partly drawn)             Yes
 9  O=C(O)/C=C/[C@H](Cc1ccc(-c2ccccc2)cc1)NCP(=O)(O)O             Yes
10  C[C@H](NC(=O)C(Cc1ccc(-c2ccccc2)cc1)NCP(=O)(O)O)C(=O)O (stereo partly drawn)             Yes
11  CC(C)C[C@H](NC(=O)[C@H](CC#Cc1ccc(F)cc1F)NCP(=O)(O)O)C(=O)O              No
12  O=C1NC(C(=O)O)CCCCCCC1CS (single isomer, unassigned; (+))             Yes
13  CSc1ccc(-n2nnc(-c3ccc(S(=O)(=O)N[C@@H](C(=O)O)C(C)C)cc3)n2)cc1              No
14   O=C(O)[C@H](Cc1ccccc1)NC(=O)C1(CS)CCCC1              No
15  O=C(O)[C@H]1CCS[C@@H]2CCC[C@H](NC(=O)[C@@H](S)Cc3ccccc3)C(=O)N12              No
16  O=C(O)CNC(=O)[C@H](Cc1ccc2c(c1)oc1ccccc12)NCP(=O)(O)O              No

---

Listing of pIC50 toward Neprilysin (Rattus norvegicus, UniProt P07861), each taken from a published source.
pIC50: −log10 of the molar value.
measured metric: pIC50

                                   molecule  bound_type  reported_measurement
0  COc1cc(CCC(N[C@@H](Cc2ccc3c(c2)oc2ccccc23)C(=O)O)P(=O)(O)O)cc(OC)c1OC (some centres undefined)           =                  4.74
1  O=C(O)C(Cc1cccc(-c2ccccc2)c1)NCP(=O)(O)O (centres undefined)           <                  6.00
2  CC(C)[C@H](S)C(=O)NC1(C(=O)N[C@@H](Cc2ccc(O)cc2)C(=O)O)Cc2ccccc2C1           =                  7.60
3  CSc1ccc(-c2ccc(S(=O)(=O)N[C@@H](C(=O)O)C(C)C)cc2)cc1           <                  6.00
4  C[C@H]1CCC[C@H](NC(=O)[C@@H](S)Cc2ccccc2)C(=O)N1CC(=O)O           =                  7.31
5  NCCCCC(N[C@@H](Cc1ccc2c(c1)oc1ccccc12)C(=O)O)P(=O)(O)O (stereo in doubt; 40o')           <                  4.00
6  O=C(N[C@@H](Cc1c[nH]c2ccccc12)C(=O)N1CCC[C@H]1C(=O)O)[C@@H](CS)Cc1ccccc1           =                  7.60
7  CC(=O)SCC(C)C(=O)Nc1ccccc1 (centres undefined)           =                  3.70
8  O=C(N[C@H]1CCC[C@@H]2SCC[C@@H](C(=O)O)N2C1=O)[C@@H](S)Cc1ccccc1           =                  6.88

---

Study the reported IC50 values for Neprilysin (Rattus norvegicus) given below; they originate from different publications.
measured metric: IC50

In [3]: df
Out[3]:
                                    compound  reported_measurement
 0  COc1cccc(CCC(N[C@@H](Cc2ccc3c(c2)oc2ccccc23)C(=O)O)P(=O)(O)O)c1OC (stereo in doubt; 40d')               6400 nM
 1  CC(NC(=O)[C@H](Cc1ccc2c(c1)oc1ccccc12)NCP(=O)(O)O)C(=O)O (stereo partly specified)               1640 nM
 2  O=C(O)CCNC(=O)[C@H](Cc1ccc(-c2ccccc2)cc1)NCP(=O)(O)O                1.9 nM
 3  O=C(N[C@H]1CCC[C@H]2CC[C@@H](C(=O)O)N2C1=O)[C@@H](S)Cc1ccccc1                 18 nM
 4  O=C(N[C@@H](Cc1ccc(-c2ccccc2)cc1)C(=O)N1CCC[C@H]1C(=O)O)[C@H](S)Cc1ccccc1                 59 nM
 5  CC(C)[C@H](S)C(=O)N[C@@H](Cc1ccc(-c2ccccc2)cc1)C(=O)N1CCC[C@H]1C(=O)O                500 nM
 6  Cc1ccc(C#Cc2ccc(S(=O)(=O)N[C@H](Cc3c[nH]c4ccccc34)C(=O)O)s2)cc1             > 1000 nM
 7  CC(C)[C@H](S)C(=O)NC1(C(=O)N[C@@H](Cc2cccnc2)C(=O)O)CCCC1                3.1 nM
 8  O=C(O)CN1C(=O)[C@@H](NC(=O)[C@@H](S)Cc2ccccc2)CCc2ccccc21                  6 nM
 9  O=C(N[C@@H]1CCC[C@H](C(=O)O)C1)C(CS)Cc1ccccc1 (stereo partly specified)                180 nM
10  O=CN(O)C[C@@H](Cc1ccccc1)C(=O)N[C@H]1Cc2ccccc2[C@H]2CCC[C@@H](C(=O)O)N2C1=O                1.8 nM
11  O=C(O)[C@H](Cc1ccc2c(c1)oc1ccccc12)NC(CCc1cccc2ccccc12)P(=O)(O)O (stereo in doubt; 40a')              13800 nM
12  C[C@H](NC(=O)[C@@H](S)Cc1ccccc1)C(=O)N1CCC[C@H]1C(=O)O                400 nM
13         O=C(O)[C@H](Cc1ccccc1)NCP(=O)(O)O             > 1000 nM
14  O=P(O)(O)CN[C@@H](Cc1ccc2ccccc2c1)c1nnn[nH]1                364 nM
15  CC(C)[C@H](S)C(=O)NC1(C(=O)N[C@@H](Cc2ccsc2)C(=O)O)CCCC1                2.6 nM
16  CCC[C@H](NC(=O)[C@@H](CS)Cc1ccccc1)C(=O)N1CCC[C@H]1C(=O)O                  2 nM
17  CC(C)[C@@H](C(=O)O)N1CCCC[C@H](NC(=O)[C@@H](S)Cc2ccccc2)C1=O               1000 nM
18  C[C@H](NC(=O)[C@@H](CS)Cc1ccccc1)C(=O)N1C[C@@H](Sc2ccccc2)C[C@H]1C(=O)O                1.6 nM
19  CC(=O)SCC(C)C(=O)NCc1ccccc1 (stereo unspecified)             200000 nM
20  O=C(N[C@@H](Cc1ccc(-c2ccccc2)cc1)C(=O)N1CCC[C@H]1C(=O)O)[C@H](S)c1ccc2c(c1)OCO2                222 nM
21  CC(C)[C@H](S)C(=O)N[C@@H](Cc1ccc(-c2ccccc2)cc1)C(=O)N[C@@H](CO)C(=O)O                 43 nM
22  O=C(O)CN1CCCC[C@H](NC(=O)[C@@H](S)Cc2ccccc2)C1=O                 82 nM
23  CC(C)CCCC(N[C@@H](Cc1ccc2c(c1)oc1ccccc12)C(=O)O)P(=O)(O)O (stereo partly specified)            > 16000 nM
24  Cc1ccc(-c2ccc(C[C@H](NCP(=O)(O)O)C(=O)O)cc2)cc1                236 nM
25  C[C@H](NC(=O)[C@H](Cc1ccccc1)[C@@H](C)S)C(=O)N1CCC[C@H]1C(=O)O                182 nM
26  CC(C)C[C@H](NC(=O)C(Cc1ccccc1)CN(O)C=O)C(=O)N[C@@H](Cc1ccccc1)C(=O)O (stereo partly specified)               1270 nM
27  O=C(O)C[C@H](Cc1ccc(-c2ccccc2)cc1)NCP(=O)(O)O                 15 nM
28  CCOC(=O)CCNC(=O)C(Cc1ccc(-c2ccccc2)cc1)NCP(=O)(O)O (stereo unspecified)                120 nM
29  O=C(O)[C@H]1CCC[C@@H](NC(=O)C2(CS)CCCCC2)C1                310 nM
30  CCOC(C)=O.O=C(N[C@H]1CCO[C@H]2CCC[C@@H](C(=O)O)N2C1=O)[C@@H](S)Cc1ccccc1                  9 nM
31  O=C1NC(C(=O)NCCCO)CCCCCCC1CS (stereo unspecified)                209 nM
32  O=C(O)CCNC(=O)C(Cc1ccc(-c2ccccc2)cc1)NCP(=O)(O)O (stereo unspecified)                  4 nM
33  CC(C)[C@H](S)C(=O)NC1(C(=O)N[C@@H](Cc2ccc(O)cc2)C(=O)O)CC1                  5 nM
34  O=C(O)c1ccc(NC(=O)C(Cc2ccc(-c3ccccc3)cc2)NCP(=O)(O)O)cc1 (stereo unspecified)                 10 nM
35  COc1cc(C[C@H](NCP(=O)(O)O)C(=O)O)ccc1-c1ccccc1                 14 nM
